Tested on: human Factor 7 mRNA
procedure summary: Antisense inhibition of human Factor 7 with short (14-mer) oligonucleotides in HepB3 cells, electroporation 1,000 nM
Format: cell-based
measurement parameters: electroporation, 1,000 nM antisense oligonucleotide, approximately 24 hours, Factor 7 mRNA relative to untreated control cells
Strand notation (5' to 3'): a small letter for the sugar, then the base; units joined by * are phosphorothioate-linked, units joined directly phosphodiester-linked; [ ] holds rarer units or linkages, { } end groups; capitals alone tell only the bases. e = 2'-O-(2-methoxyethyl) (MOE); [5mC] = 5-methylcytosine; d = 2'-deoxy (DNA)
assay readout: % Inhibition (%)
Please reply with the bare figure in % and do not write the unit itself.

>>> measured("435807 (antisense e[5mC]*eA*dG*dT*dA*d[5mC]*dT*dT*d[5mC]*d[5mC]*d[5mC]*dA*e[5mC]*eG) [compound 435807]")
35
>>> measured("435745 (antisense eG*eG*dG*dA*dG*d[5mC]*dT*dA*d[5mC]*dA*dG*d[5mC]*e[5mC]*eT) [compound 435745]")
0
>>> measured("435719 (antisense e[5mC]*eA*dG*d[5mC]*d[5mC]*dT*dT*dG*dG*d[5mC]*dT*dT*eT*e[5mC]) [compound 435719]")
50

Incoming: Quick check: % Inhibition of 435488 (antisense e[5mC]*eA*dG*dT*d[5mC]*d[5mC]*dT*dG*dG*dG*dT*d[5mC]*eA*eT) [compound 435488] ?
Outgoing: 17

Incoming: Quick check: % Inhibition of 435766 (antisense eG*e[5mC]*dA*d[5mC]*d[5mC]*dT*dG*d[5mC]*dA*dG*d[5mC]*d[5mC]*eA*eG) [compound 435766] ?
Outgoing: 51
